system: N-NTD (SARS-CoV-2 (Wuhan-Hu-1), UniProt P0DTC9 46-174)
protocolNotes: competition fluorescence anisotropy; probe N11; 10 mM Tris-HCl pH 7.4, 150 mM NaCl, 1 mM MgCl2; FA with 0.1 mg/ml BSA at 25 C; BLI with 0.05% Tween-20; SEC at ambient temperature
testConditions: protein: recombinant; tags: N-terminal 6xHis removed by HRV 3C
For each of the binders below, state its Ki.
Give the value in µM but do not write µM after it.

I'd like to know its Ki. The binder in question is UUUUUUUUUUUUUUU (ssRNA) [poly-rU15]
7.8

GET /values?readout=Ki&item= TTTTTTTTTTTTTTT (ssDNA) [poly-dT15]
4.12

Values were extracted from paper PMC11602162.
